target: Retinaldehyde dehydrogenase 3 (Homo sapiens) (UniProt P47895); assay: qHTS for Inhibitors of the Aldehyde Dehydrogenase Family (ALDH1A3) Validation screen (AID 2061312); settings: ALDH1A3 enzyme inhibition qHTS validation, fluorescence; series mostly up to 84.7 µM; further: nearly all actives have a fitted effect of over 45% in size
Records with an inconclusive call do not appear. Calls of active or inactive are those of the source. The call rests on the fitted dose curve; in most records, active means well fitted inhibition curve with a large enough effect; inconclusive means small, poorly fitted or top-dose-only effect; inactive means no such curve, though single readings can be large or run the other way.

{"COMPOUND": "CCCNC(C)C(=O)Nc1ccccc1C (stereo not given)", "TESTED TARGET": "Retinaldehyde dehydrogenase 3 (Homo sapiens) (UniProt P47895)", "outcome": "inactive"}
{"COMPOUND": "COc1ccccc1Oc1c(NS(=O)(=O)c2ccc(C)cn2)nc(-c2ccncc2)nc1OC", "TESTED TARGET": "Retinaldehyde dehydrogenase 3 (Homo sapiens) (UniProt P47895)", "outcome": "inactive"}
{"COMPOUND": "C[N+](C)(C)CCCCCCCCCC[N+](C)(C)C", "TESTED TARGET": "Retinaldehyde dehydrogenase 3 (Homo sapiens) (UniProt P47895)", "outcome": "inactive"}
{"COMPOUND": "C=C[C@]1(C)C[C@@H](OC(=O)CSC2C[C@H]3CC[C@@H](C2)N3C)[C@]2(C)[C@H](C)CC[C@]3(CCC(=O)[C@H]32)[C@@H](C)[C@@H]1O (stereo not given in full)", "TESTED TARGET": "Retinaldehyde dehydrogenase 3 (Homo sapiens) (UniProt P47895)", "outcome": "inactive"}
{"COMPOUND": "CCn1cc(C(=O)O)c(=O)c2cc3c(cc21)OCO3", "TESTED TARGET": "Retinaldehyde dehydrogenase 3 (Homo sapiens) (UniProt P47895)", "outcome": "inactive"}

###

test: BET inhibitor-based combinations targeting novel dependencies in MECOM-rearranged (r) AML: MV-4-11 cell line (AID 2202233); settings: MV-4-11 AML viability, CellTiter-Glo luminescence, 48 h; series mostly up to 46 µM; further: nearly all actives have a fitted effect of over 45% in size
Inconclusive results are not listed. Activity calls are given as the source filed them. Calls come from the whole dose curve; as a rule, active = well fitted inhibition curve with a large enough effect; inconclusive = small, poorly fitted or top-dose-only effect; inactive = no such curve, though single readings can be large or run the other way.
Possible outcomes: active, inactive

{"SMILES STRUCTURE": "COc1cc2c(cc1-c1c(C)noc1C)ncc1[nH]c(=O)n([C@H](C)c3ccccn3)c12", "GROUP LABEL": "active"}
{"SMILES STRUCTURE": "Cc1cccc(-c2nn(C(=S)Nc3ccccc3)cc2-c2ccnc3ccccc23)n1", "GROUP LABEL": "inactive"}
{"SMILES STRUCTURE": "COc1ccc(-n2nc(C(N)=O)c3c2C(=O)N(c2ccc(N4CCCCC4=O)cc2)CC3)cc1", "GROUP LABEL": "inactive"}
{"SMILES STRUCTURE": "N#Cc1c(O)c2c(-c3ccc(-c4ccccc4O)cc3)csc2[nH]c1=O", "GROUP LABEL": "inactive"}
{"SMILES STRUCTURE": "COc1ccc(-c2cc(=O)c3c(O)cc(O)cc3o2)cc1O", "GROUP LABEL": "active"}
{"SMILES STRUCTURE": "Cc1cc(Nc2nc(N[C@@H](C)c3ccc(F)cc3)c(C#N)cc2F)n[nH]1", "GROUP LABEL": "active"}
{"SMILES STRUCTURE": "NCc1c[nH]c(=S)n1[C@H]1CCc2c(F)cc(F)cc2C1", "GROUP LABEL": "inactive"}
{"SMILES STRUCTURE": "Cn1cc(-c2c[nH]c3ncnc(N4CCOCC4)c23)cn1", "GROUP LABEL": "active"}
{"SMILES STRUCTURE": "CC1(C)Cc2c(-c3ccccc3)c(-c3ccc(Cl)cc3)c(CC(=O)O)n2C1", "GROUP LABEL": "active"}
{"SMILES STRUCTURE": "COc1ccc2nc3cc(Cl)ccc3c(Nc3cc(CN4CCCC4)c(O)c(CN4CCCC4)c3)c2n1", "GROUP LABEL": "active"}
